- Test system: TR146 cells
- measurement.notes: In vitro permeation, buccal model
- Assay type: in vitro ADME, human
- condition.context: from CS extract, 180 min
Marks after values point to notes of the source that are not given here.
Entries and their Permeation (%) values follow.

Previously resolved entries follow.
O=C(O)c1ccc(O)c(O)c1 [Protocatechuic acid] = 40.40 ± 0.82^c %
O=C(O)C[C@H](C(=O)O)[C@@H](O)C(=O)O [Isocitric acid] = 0.54 ± 0.04^a^,^b %
O=C(O)CCC(=O)O [Succinic acid] = 21.62 ± 0.61^b %
Oc1cc(O)c2c(c1)O[C@H](c1ccc(O)c(O)c1)[C@H](O)C2 [Epicatechin] = 97.36 ± 2.57^a %
COc1cc(-c2oc3cc(O)cc(O)c3c(=O)c2O)ccc1O [Isorhamnetin] = 99.08 ± 2.69^a %
O=C1CC[C@@H](C(=O)O)N1 [Pyroglutamic acid] = 21.35 ± 0.97^b %
COc1cc(CC(=O)O)ccc1O [Homovanillic acid] = 91.20 ± 1.73^b %
COc1cc(C=O)ccc1O [Vanillin] = 53.91 ± 1.07^d %
O=C(O)c1cccc(O)c1 [3-Hydroxybenzoic acid] = 16.86 ± 0.23^a %

Now consider a different compound.
Query block: Give the value of Permeation (%) reported for the following: O[C@H]1[C@H](O)[C@@H](O)[C@H](O)[C@@H](O)[C@H]1O [Myo-Inositol]
Result block: 25.02 ± 0.09^a^,^b %
